Where do these numbers come from? They come from patent US20040258695A1.

# System: TbpB N-lobe from H. somnus
# Assay Notes: bTf C-lobe overlapping peptide library probed with HRP-labelled H. somnus TbpB N-lobe
# Type: binding
Measure Name: binding to H. somnus TbpB N-lobe (bound peptide listed; None = did not bind)

* AWAKNLKKENFEVLC (TbpB N-lobes of Bovine Pathgens) [Peptide 10, bTf C-lobe library peptide] | None
